# METHOD: Growth inhibition of human MKN1 cells after 48 hrs by sulforhodamine B assay
# Assay type: functional
# STUDY CONDITIONS: MKN-1, 48 h
Field: GI50. Provide a value for each of the molecules that follow.
One number for each entry, in µM.

Completed entries (count: 3):
- CCCCCCCCCCCC[C@@H](O)[C@H]1CC[C@H]([C@H](O)CCCCCCCCCCN(C)C(=O)c2ccnn2C)O1: 5.5
- CCCCCCCCCCCC[C@@H](O)[C@H]1CC[C@H]([C@H](O)CCCCCCCCCCOC(=O)c2ccnn2C)O1: 43.7
- CCCCCCCCCCCC[C@@H](O)[C@H]1CC[C@H]([C@H](O)CCCCCCCCCCNCc2ccnn2C)O1: 1.41

Here is the next item to consider.
Need GI50, item CCCCCCCCCCCC[C@@H](O)[C@H]1CC[C@H]([C@H](O)CCCCCCCCCCNC(=O)c2ccnn2C)O1 43.7

----------
# Test system: NCI-H23
# METHOD: Growth inhibition of human NCI-H23 cells after 48 hrs by sulforhodamine B assay
# Format: functional
# STUDY CONDITIONS: NCI-H23, 48 h
Please provide measured GI50 for the entries that follow.
Answers are plain numbers, in µM.

Report GI50 for each item below.
1. CCCCCCCCCCCC[C@@H](O)[C@H]1CC[C@H]([C@H](O)CCCCCCCCCCCCc2ccnn2C)O1
2. CCCCCCCCCCCC[C@@H](O)[C@H]1CC[C@H]([C@H](O)CCCCCCCCCCC(=O)Nc2ccnn2C)O1
3. CCCCCCCCCCCC[C@@H](O)[C@H]1CC[C@H]([C@H](O)CCCCCCCCCCOC(=O)c2ccnn2C)O1
4. CCCCCCCCCCCC[C@@H](O)[C@H]1CC[C@H]([C@H](O)CCCCCCCCCCN(C)C(=O)c2ccnn2C)O1

1. 0.912
2. 26.9
3. 11
4. 0.24

----------
# METHOD: Growth inhibition of human MKN1 cells after 48 hrs by sulforhodamine B assay
# Assay type: functional
# STUDY CONDITIONS: MKN-1, 48 h
ENDPOINT NAME: GI50

Example entries and their recorded answers appear below.
• CCCCCCCCCCCC[C@@H](O)[C@H]1CC[C@H]([C@H](O)CCCCCCCCCCCCc2ccnn2C)O1 = > 100 µM
• CCCCCCCCCCCC[C@@H](O)[C@H]1CC[C@H]([C@H](O)CCCCCCCCCCCCC2=C[C@H](C)OC2=O)O1 = > 100 µM

For the next question, use this compound.
Fill blank: measured GI50 of the compound CCCCCCCCCCCC[C@@H](O)[C@H]1CC[C@H]([C@H](O)CCCCCCCCCCC(=O)Nc2ccnn2C)O1 is ____. > 100 µM
